In this section, each of the compounds is paired with its reported TGI.
Test system: HCC-2998 colon
Measurement protocol: NCI tumour cell line growth inhibition, 48 h
Where a SMILES comes first, the peptide text is derived from it. [ ]: non-standard residue; d: D form. The star is where a group is joined. Bn2Val = CC(C)[C@@H](C(=O)*)N(Cc1ccccc1)Cc1ccccc1; NHPiperonyl = c1cc2c(cc1CN*)OCO2; NMeV = CN[C@H](C(=O)O)C(C)C; dNMeA = CN[C@H](C)C(=O)O
A number alone suffices; assume µM.

Answered examples (3):
Compound	TGI, µM
S=C(Nc1ccc(Cl)cc1)c1ccc(CN2CCCCC2)s1	21.6
Nc1ncnc2c1ncn2C1OC(CO)CC1O (configuration not stated)	43.7
COc1cc2c(NCCN(C)C)nc3c4cc5c(cc4ccc3c2cc1OC)OCO5	8.93

// query Endpoint output: TGI of CC(C)[C@H](NC(=O)[C@H](C(C)C)N(Cc1ccccc1)Cc1ccccc1)C(=O)N(C)[C@H](C(=O)N1CCC[C@H]1C(=O)N(C)[C@H](C)C(=O)NCc1ccc2c(c1)OCO2)C(C)C (Bn2Val-V[NMeV]P[dNMeA]-NHPiperonyl) . Value?
// result 37.1

// query Could you do the same for COc1ccc(C(=O)OC2C(OC3C(O)COC(O[C@H]4C[C@H]5[C@@H]6CC=C7C[C@@H](O)CC[C@]7(C)[C@H]6CC[C@]5(C)[C@H]4[C@H](C)C(=O)CCC(C)C)C3OC(=O)C(C)C)OCC(O)C2O)cc1 (some centres not stated) , please?
// result 5.79

// query Could you do the same for CSc1ccc(/C=C/C(=O)c2nc3ccccc3[nH]2)cc1 , please?
// result 23.7

// query Could you do the same for CC/C=C\C[C@H](O)C/C=C1/C(=O)C=C[C@@H]1C/C=C\CCCC(=O)OCCS(=O)(=O)c1ccccc1 , please?
// result 3.64

---

In this section, each of the molecules is paired with its reported TGI.
System: 786-0 renal
Measurement protocol: NCI tumour cell line growth inhibition, 48 h

Answered examples (8):
>>> df
                                   molecule  system_name  endpoint_value
0                  NNC(=O)CC(=O)Nc1ccccc1Cl  786-0 renal        > 100 µM
1  CO[C@H](C(=O)O[C@H]1C(=O)N2CCC3CCC1C32C)c1ccccc1 (stereo not given in full)  786-0 renal        > 100 µM
2  COc1cccc([C@@H]2C/C(=N\NC(=O)C(=O)N[C@@H](C)c3ccccc3)c3cc4c(cc3N2)OCO4)c1  786-0 renal        > 100 µM
3           CN(Cc1ccccc1)c1ncnc2ccc(Br)cc12  786-0 renal         26.3 µM
4  O=C(N/C(=C\NC1=NCCS1)C(=O)N1CSC[C@@H]1C(=O)O)c1ccccc1  786-0 renal        > 100 µM
5     Cc1cc(C)c(-n2c(C)c(C)c(C#N)c2N)c(C)c1  786-0 renal        > 100 µM
6  Clc1ccc(/C=c2\nc(-c3ccccc3)n3c2nc2ccccc23)cc1  786-0 renal        > 100 µM
7  COc1cc2c(cc1OCCCOc1cc3c(cc1OC)C(=O)N1CC(F)(F)C[C@H]1C=N3)N=C[C@@H]1CC(F)(F)CN1C2=O  786-0 renal        0.877 µM

// query Endpoint output: TGI of COc1ccc(-c2cnc(SCC(=O)c3c(C)n(C)n(-c4ccccc4)c3=O)n2-c2ccc(OC)cc2)cc1 . Value?
// result > 50 µM

// query Could you do the same for O=C(/C=C/c1ccc[nH]1)c1ccccc1 , please?
// result > 100 µM

---

System: U251 CNS
Measurement protocol: NCI tumour cell line growth inhibition, 48 h
In this section, each of the compounds is paired with its reported TGI.

Answered examples (5):
                                   compound  system_name  measured_quantity  endpoint_value
0             CSc1n[nH]c2c1c(C)nn2-c1ccccc1     U251 CNS                TGI        > 100 µM
1  CC(C)C(C)C(O)C(O)C(C)C1CCC2C3COC(=O)C4CC(O)C(O)CC4(C)C3CCC12C (configuration not stated)     U251 CNS                TGI        > 100 µM
2  O=C1CCN=C(NC(=O)C(F)(F)F)N1CCc1c[nH]c2ccccc12     U251 CNS                TGI        > 100 µM
3    CCCCCCN(CCCCCC)C1=CC(=O)C(=O)c2ccccc21     U251 CNS                TGI         29.3 µM
4                  CN1C(=O)C(C)(C)NS1(=O)=O     U251 CNS                TGI        > 100 µM

// query Checklist item: TGI tested on U251 CNS, entry O=S(Nc1ccccc1)c1ccccc1Oc1ccccc1 (configuration not stated) , value?
// result > 100 µM

// query Could you do the same for CCN1C(=O)/C(=C\c2coc3ccccc3c2=O)SC1=S , please?
// result > 100 µM

// query Could you do the same for CC(=O)CC(=O)ON(C)C(C)=O , please?
// result > 100 µM

---

Test system: RXF 393 renal
Measurement protocol: NCI tumour cell line growth inhibition, 48 h
Measured quantity: GI50

Answered examples (4):
                                   compound    system_name  measured_quantity  endpoint_value
0  C[C@@]1([C@H](OC(=O)c2cccc3ccccc23)C(N)=O)CO1  RXF 393 renal               GI50         4.91 µM
1  CCN(CC)c1ccc(CNc2cc(C)nc3ccc(OC)cc23)cc1  RXF 393 renal               GI50         2.02 µM
2  COc1ccc(-c2cnc(SCC(=O)c3c(C)n(C)n(-c4ccccc4)c3=O)n2-c2ccc(OC)cc2)cc1  RXF 393 renal               GI50         > 50 µM
3  O=c1[nH]ccc2nc(N3CCC(O)CC3)nc(Nc3ccc(N4CCOCC4)cc3)c12  RXF 393 renal               GI50         1.74 µM

// query Endpoint output: GI50 of Cc1c(C)n(CC(O)CNC2CCCCC2C)c2ccccc12 (stereo not given) . Value?
// result 10.5 µM

---

System: HS 578T breast
Measurement protocol: NCI tumour cell line growth inhibition, 48 h
In this section, each of the compounds is paired with its reported TGI.

Answered examples (2):
                                   compound     system_name  endpoint_value
0  O=C1CC(c2ccccc2)NCCCCN2CC(CN1)C(C(O)c1ccccc1)C2=O (stereo not drawn)  HS 578T breast        > 100 µM
1  CC(C)(C)n1nc(C2CC2)cc1NC(=O)Nc1ccc(Cl)cc1  HS 578T breast        > 100 µM

Next:
// query Checklist item: TGI tested on HS 578T breast, entry S=C(Nc1ccc(Cl)cc1)c1ccc(CN2CCCCC2)s1 , value?
// result > 100 µM

---

Tested on: PC-3 prostate
Measurement protocol: NCI tumour cell line growth inhibition, 48 h; in the data active = GI50 below about 0.43 µM; inactive = the rest
Pick one and only one: active, inactive

// below: answered compounds
Compound	Group label
C=C(C)[C@@H]1CC[C@]2(C(=O)N3CCN(C)CC3)CC[C@]3(C)[C@H](CC[C@@H]4[C@@]5(C)C/C(=C/c6ccncc6)[C@H](O)C(C)(C)[C@@H]5CC[C@]43C)[C@@H]12	inactive
O=C1c2cccc3c([N+](=O)[O-])ccc(c23)C(=O)N1CCCCl	inactive
COc1ccccc1CN=C1NC(=O)/C(=C/c2ccc3ncccc3c2)S1	inactive
Cc1cc(N2CCCCC2)nc(NCc2cc(Nc3ccnc4cc(Cl)ccc34)ccc2F)n1	inactive
COc1cc2c(cc1OCCCOc1cc3c(cc1OC)C(=O)N1CC(F)(F)C[C@H]1C=N3)N=C[C@@H]1CC(F)(F)CN1C2=O	inactive
O=c1ncc(I)c[nH]1	inactive

Consider the record given below.
// query Call for entry COc1ccc(-c2c(-c3cc4c(c(OC)c3OC)OCO4)noc2N)cc1 :
// result active

---

Tested on: CCRF-CEM leukemia
Measurement protocol: NCI tumour cell line growth inhibition, 48 h
In this section, each of the compounds is paired with its reported TGI.

// query Endpoint output: TGI of NCc1ccc(O)c(O)c1O . Value?
// result 56.6 µM

// query Could you do the same for Nc1nc(N)c2c(CCc3ccc(C(=O)N[C@@H](CCC(=O)O)C(=O)O)cc3)ccnc2n1 , please?
// result > 100 µM

// query Could you do the same for Nc1c(C(=O)c2ccc(Cl)cc2)[nH]c(Nc2ccc(Cl)cc2)c1C(=S)Nc1ccccc1 , please?
// result > 100 µM

// query Could you do the same for CCCCC1CCCCCCc2[nH]c(/C=C3\N=C(c4ccc[nH]4)C=C3OC)cc21 (stereo not given) , please?
// result 0.566 µM

// query Could you do the same for CCCCCCCCCCCCCCC(C(=O)[O-])[n+]1ccccc1 (stereo not given) , please?
// result > 100 µM
